Source listed as ChEMBL document CHEMBL4346735.

test: Volume of distribution at steady state in Balb/c mouse at 3 mg/kg, iv; type: ADME, organism-based; conditions: in vivo, read-out: Vdss
PROPERTY: Vd (L/kg)
Give your result in L/kg as a bare value.

// Vd value for O=C([O-])c1ccc(-n2cc(C(=O)c3c(Cl)cccc3Cl)c3cccc(F)c32)cc1.[Na+] : 4.3

---

Each entry below carries its reported log10(IC50).
target: Nuclear receptor ROR-gamma (Homo sapiens, UniProt P51449); assay: Inverse agonist activity at GST-tagged RORgammat LBD (unknown origin) using fluorescein-D22 co-activator peptide as substrate incubated for 1 hr by TR-FRET assay
Sequence (P51449 whole entry, the tested form may be a part): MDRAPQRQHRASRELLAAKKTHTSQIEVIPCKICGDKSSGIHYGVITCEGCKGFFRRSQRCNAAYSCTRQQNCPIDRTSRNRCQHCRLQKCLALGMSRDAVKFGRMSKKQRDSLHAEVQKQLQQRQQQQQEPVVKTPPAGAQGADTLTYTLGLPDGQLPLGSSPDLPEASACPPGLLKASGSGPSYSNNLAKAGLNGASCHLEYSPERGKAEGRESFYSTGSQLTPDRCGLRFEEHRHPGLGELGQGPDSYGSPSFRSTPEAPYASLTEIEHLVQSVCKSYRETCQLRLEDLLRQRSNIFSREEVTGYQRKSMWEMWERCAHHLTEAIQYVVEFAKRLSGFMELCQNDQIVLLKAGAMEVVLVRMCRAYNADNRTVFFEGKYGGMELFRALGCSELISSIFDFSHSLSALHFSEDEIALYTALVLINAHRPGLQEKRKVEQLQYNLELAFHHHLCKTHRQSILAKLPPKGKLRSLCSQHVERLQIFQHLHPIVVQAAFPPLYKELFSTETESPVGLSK
Heads up: the numbers are on a log10 scale; they represent IC50 in nM.

# log10(IC50) measured on Nuclear receptor ROR-gamma (Homo sapiens, UniProt P51449) for item O=C(O)c1ccc(-c2nn(C(=O)c3c(Cl)cccc3Cl)c3ccccc23)cc1 = 0.30

# log10(IC50) measured on Nuclear receptor ROR-gamma (Homo sapiens, UniProt P51449) for item O=C(O)c1ccc(-n2cc(C(=O)c3c(Cl)cccc3Cl)c3c(F)cccc32)cc1 = 1.40

# log10(IC50) measured on Nuclear receptor ROR-gamma (Homo sapiens, UniProt P51449) for item O=C(O)c1ccc(-n2cc(C(=O)c3c(Cl)cccc3Cl)c3cccnc32)cc1 = 1.30

# log10(IC50) measured on Nuclear receptor ROR-gamma (Homo sapiens, UniProt P51449) for item COc1cccc2c(C(=O)c3c(Cl)cccc3Cl)cn(-c3ccc(C(=O)O)cc3)c12 = 2.54

# log10(IC50) measured on Nuclear receptor ROR-gamma (Homo sapiens, UniProt P51449) for item Cc1cccc2c(C(=O)c3ccccc3Cl)cn(-c3ccc(C(=O)O)cc3F)c12 = 0.91

# log10(IC50) measured on Nuclear receptor ROR-gamma (Homo sapiens, UniProt P51449) for item O=C(O)c1ccc(-n2nc(C(=O)c3c(Cl)cccc3Cl)c3ccccc32)cc1 = 0.58

# log10(IC50) measured on Nuclear receptor ROR-gamma (Homo sapiens, UniProt P51449) for item O=C(O)c1ccc(-n2cc(C(=O)c3c(Cl)cccc3Cl)c3ccccc32)cc1 = 0.20

# log10(IC50) measured on Nuclear receptor ROR-gamma (Homo sapiens, UniProt P51449) for item O=C(O)c1ccc(-n2cc(C(=O)c3c(F)cccc3Cl)c3ccccc32)cc1 = 1.30

# log10(IC50) measured on Nuclear receptor ROR-gamma (Homo sapiens, UniProt P51449) for item Cc1c(C(=O)c2c(Cl)cccc2Cl)c2ccccc2n1-c1ccc(C(=O)O)cc1 = 2.19

---

Each entry below carries its reported half-life.
experiment: Half life in mouse at 3 mg/kg, iv; type: ADME, organism-based; conditions: in vivo
Give your result in h as a bare value.

The following compounds have reported results that may help.
STRUCTURE SMILES STRING: Cc1cccc(Cl)c1C(=O)c1cn(-c2ccc(C(=O)O)cc2)c2ccccc12
UOM: h
REPORTED: 3.2

STRUCTURE SMILES STRING: CCS(=O)(=O)c1ccc(CC(=O)Nc2cc(Cl)c(-c3ccccc3OC(F)(F)F)c(Cl)c2)cc1
UOM: h
REPORTED: 10.7

STRUCTURE SMILES STRING: O=C(O)c1ccc(-n2cc(C(=O)c3c(Cl)cccc3C(F)(F)F)c3c(F)cccc32)c(F)c1
UOM: h
REPORTED: 2.7

STRUCTURE SMILES STRING: O=C(O)c1ccc(-n2cc(C(=O)c3c(Cl)cccc3Cl)c3ccccc32)c(F)c1
UOM: h
REPORTED: 1.8

STRUCTURE SMILES STRING: O=C(O)c1ccc(-n2cc(C(=O)c3c(Cl)cccc3Cl)c3cccc(F)c32)cc1
UOM: h
REPORTED: 2.4

Next item in the queue.
// half-life value for O=C(O)c1ccc(-n2cc(C(=O)c3c(Cl)cccc3C(F)(F)F)c3cccnc32)c(F)c1 : 3.2

---

assay: Solubility of the compound at pH 4; settings: buffer
PROPERTY: solubility (µM)
Give your result in µM as a bare value.

STRUCTURE SMILES STRING: O=C(O)c1ccc(-n2cc(C(=O)c3c(Cl)cccc3C(F)(F)F)c3ccccc32)cc1
solubility, µM: 1
//
STRUCTURE SMILES STRING: O=C(O)c1ccc(-n2cc(C(=O)c3c(Cl)cccc3Cl)c3cccnc32)cc1
solubility, µM: 3
//
STRUCTURE SMILES STRING: O=C([O-])c1ccc(-n2cc(C(=O)c3c(Cl)cccc3Cl)c3ccccc32)cc1.[Na+]
solubility, µM: 30
//
STRUCTURE SMILES STRING: Cc1cccc(Cl)c1C(=O)c1cn(-c2ccc(C(=O)O)cc2F)c2ncccc12
solubility, µM: 1

// solubility value for Cc1cccc(Cl)c1C(=O)c1cn(-c2ccc(C(=O)O)cc2)c2ccccc12 : 1

---

experiment: Volume of distribution at steady state in Sprague-Dawley rat at 3 mg/kg, iv administered as single dose measured up to 24 hrs by LC-MS/MS analysis; assay type: ADME, organism-based; conditions: in vivo, read-out: Vdss
PROPERTY: Vd (L/kg)
Give your result in L/kg as a bare value.

// Vd value for O=C([O-])c1ccc(-n2cc(C(=O)c3c(Cl)cccc3Cl)c3cccc(F)c32)cc1.[Na+] : 4.32

---

Each entry below carries its reported Vd.
assay: Volume of distribution at steady state in mouse at 3 mg/kg, iv; type: ADME, organism-based; conditions: in vivo, read-out: Vdss
Give your result in L/kg as a bare value.

The following compounds have reported results that may help.
STRUCTURE SMILES STRING: O=C(O)c1ccc(-n2cc(C(=O)c3c(Cl)cccc3C(F)(F)F)c3c(F)cccc32)c(F)c1
UOM: L/kg
REPORTED: 1

STRUCTURE SMILES STRING: O=C(O)c1ccc(-n2cc(C(=O)c3c(Cl)cccc3Cl)c3ccccc32)c(F)c1
UOM: L/kg
REPORTED: 2.8

STRUCTURE SMILES STRING: CCS(=O)(=O)c1ccc(CC(=O)Nc2cc(Cl)c(-c3ccccc3OC(F)(F)F)c(Cl)c2)cc1
UOM: L/kg
REPORTED: 3.5

STRUCTURE SMILES STRING: O=C(O)c1ccc(-n2cc(C(=O)c3c(Cl)cccc3C(F)(F)F)c3cccnc32)c(F)c1
UOM: L/kg
REPORTED: 2.4

STRUCTURE SMILES STRING: Cc1cccc(Cl)c1C(=O)c1cn(-c2ccc(C(=O)O)cc2)c2ccccc12
UOM: L/kg
REPORTED: 2.5

Next item in the queue.
// Vd value for O=C(O)c1ccc(-n2cc(C(=O)c3c(Cl)cccc3Cl)c3cccc(F)c32)cc1 : 4.8

---

experiment: Plasma protein binding in human; type: ADME; conditions: read-out: PPB
PROPERTY: fraction unbound

// fraction unbound value for O=C(O)c1ccc(-n2cc(C(=O)c3c(Cl)cccc3Cl)c3cccc(F)c32)cc1 : < 0.03

---

assay: Metabolic stability in mouse liver microsomes assessed as parent compound remaining at 1 uM preincubated for 5 mins followed by NADPH addition after 30 mins by LC-MS/MS analysis; format: ADME, Microsome; conditions: read-out: Stability
PROPERTY: remaining at 0.5 h, 1 µM (%)
Give your result in % as a bare value.

The following molecules have reported results that may help.
STRUCTURE SMILES STRING: O=C(O)c1ccc(-n2cc(C(=O)c3c(Cl)cc(Cl)cc3Cl)c3ccccc32)cc1
remaining at 0.5 h, 1 µM (%): 90

STRUCTURE SMILES STRING: O=C(O)c1ccc(-n2cc(C(=O)c3c(Cl)cccc3Cl)c3ccccc32)cc1
remaining at 0.5 h, 1 µM (%): 99

STRUCTURE SMILES STRING: O=C(O)c1ccc(-n2cc(C(=O)c3c(Cl)cccc3Cl)c3cccnc32)c(F)c1
remaining at 0.5 h, 1 µM (%): 92

STRUCTURE SMILES STRING: Cc1cccc(Cl)c1C(=O)c1cn(-c2ccc(C(=O)O)cc2)c2cccc(F)c12
remaining at 0.5 h, 1 µM (%): 80

// remaining at 0.5 h, 1 µM value for O=C(O)c1ccc(-n2cc(C(=O)c3c(Cl)cccc3Cl)c3ccccc32)c(Cl)c1 : 64

// remaining at 0.5 h, 1 µM value for O=C(O)c1ccc(-n2cc(C(=O)c3c(Cl)cccc3C(F)(F)F)c3cccc(F)c32)cc1 : 88

---

experiment: Metabolic stability in dog hepatocytes assessed as parent compound remaining after 60 mins; type: ADME, cell-based, Canis lupus familiaris, Hepatocyte; details: read-out: Stability
PROPERTY: remaining at 1 h (%)
Give your result in % as a bare value.

// remaining at 1 h value for O=C(O)c1ccc(-n2cc(C(=O)c3c(Cl)cccc3Cl)c3cccc(F)c32)cc1 : 51
